Target: WNK4
Assay: pooled miR-30 sensor sort-seq; sequence = guide strand; further: reference of the scale not given here
Conditions: shRNA
Note to self: values exactly at -0.2 are YES. So sensor-assay potency score (higher = more potent) at or above -0.2 is YES, below is NO.

Solved entries (count: 4):
{"Sequence": "TTTCTGTAGTGTCTGTAGTGTT", "Experimental Target": "WNK4", "Label": "NO"}
{"Sequence": "TTGAGGTATCGGCCATCGGGGG", "Experimental Target": "WNK4", "Label": "NO"}
{"Sequence": "TTGTTGATCAGAAAGCATCAGA", "Experimental Target": "WNK4", "Label": "NO"}
{"Sequence": "ATTGTCGCACTTGAGATCCCGG", "Experimental Target": "WNK4", "Label": "NO"}

Does sensor-assay potency score (higher = more potent) meet or surpass -0.2 for TACACCGTCTTGAAGGAGCCAC ?
NO

Hello, I need to know if TTTCCTCGTACATCTCGGGGGC has measured sensor-assay potency score (higher = more potent) not below -0.2. Thanks!
YES

Does sensor-assay potency score (higher = more potent) meet or surpass -0.2 for TTCTGTAGTGTCTGTAGTGTTT ?
NO

Item TTTTCTGTAGTGTCTGTAGTGT with sensor-assay potency score (higher = more potent) of -0.2 or above?
YES

Check the entry TTTTCCTCGTACATCTCGGGGG : does sensor-assay potency score (higher = more potent) equal or exceed -0.2?
YES

Please tell me: is the sequence TAGTTCATCCACACTGGGCTGG at or over -0.2 in terms of sensor-assay potency score (higher = more potent)?
YES

Is the recorded value of sensor-assay potency score (higher = more potent) equal to or greater than -0.2 for this sequence? TCAAACTTGAGGTATCGGCCAT
YES

* * *

Target: PRADC1
Assay: pooled miR-30 sensor sort-seq; sequence = guide strand
Conditions: shRNA
# Lookup of reported sensor-assay potency score (higher = more potent) keyed by entry
Please give the numeric answer without any surrounding text.

Example entries and their recorded answers appear below.
{"Sequence": "ATCATCTCCACGTAGAAGCTGT", "Numeric Value": -0.485}
{"Sequence": "TGAATCTGCTCATACCTTGTGT", "Numeric Value": -0.084}
{"Sequence": "TTGTGTGAAAGATACCACCAAA", "Numeric Value": -1.24}
{"Sequence": "ATGCTGGTGACATTGACTGGGA", "Numeric Value": -1}
{"Sequence": "TTTGTTTCGGGTTCTAGCCAGA", "Numeric Value": -0.698}

Now look at this one.
// TAGCATGAGACACCCTTGGGGG : sensor-assay potency score (higher = more potent) value = -0.696

* * *

Target: DIRAS3
Assay: pooled miR-30 sensor sort-seq; sequence = guide strand
Conditions: shRNA
List of sensor-assay potency score (higher = more potent) values.
Could you keep your reply to the number by itself?

// solved cases for sensor-assay potency score (higher = more potent) follow
{"Sequence": "TATACGTATTGACAACATGGAT", "Numeric Value": -1.16}
{"Sequence": "TAATCTCTGATCTTCCTGTGGG", "Numeric Value": 0.371}

TACATCATGCTACATTTTGTTC has a reported sensor-assay potency score (higher = more potent) of -1.42

So for TACTTTAAATACATCATGCTAC , the logged sensor-assay potency score (higher = more potent) turned out to be -0.338

Looking up TTCCACTCCATCGCACAGGTGG , I found its sensor-assay potency score (higher = more potent) recorded as -0.748

Notebook: TTTAAATACATCATGCTACATT , sensor-assay potency score (higher = more potent) read as -0.644

So for TTACAGTCCAAACAACAGCACA , the logged sensor-assay potency score (higher = more potent) turned out to be -1.35
